- test system: Cytochrome P450 2C9 (Homo sapiens, UniProt P11712)
- Sequence (P11712 whole entry): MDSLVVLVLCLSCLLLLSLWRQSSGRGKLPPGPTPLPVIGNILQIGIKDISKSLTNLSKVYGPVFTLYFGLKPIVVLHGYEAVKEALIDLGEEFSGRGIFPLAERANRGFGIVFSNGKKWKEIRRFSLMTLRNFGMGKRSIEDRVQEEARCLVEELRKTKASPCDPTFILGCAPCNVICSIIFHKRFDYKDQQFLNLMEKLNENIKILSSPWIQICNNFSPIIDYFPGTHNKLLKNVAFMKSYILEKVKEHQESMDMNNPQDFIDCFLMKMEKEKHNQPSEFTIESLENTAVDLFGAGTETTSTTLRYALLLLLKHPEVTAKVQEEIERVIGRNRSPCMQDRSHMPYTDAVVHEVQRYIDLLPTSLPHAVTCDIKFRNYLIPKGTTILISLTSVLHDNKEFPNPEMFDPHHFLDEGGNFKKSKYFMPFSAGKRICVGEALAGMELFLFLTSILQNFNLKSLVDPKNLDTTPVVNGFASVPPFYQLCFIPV
- assay: Drug activation in human Hep3B cells assessed as human CYP2C9-mediated drug metabolism-induced cytotoxicity measured as decrease in cell viability at 300 uM pre-incubated with BSO for 18 hrs followed by incubation with compound for 3 hrs in presence of NADPH measured after 24 hrs in absence of compound, CYP3A4 and NADPH by cell titer-glo luminescence assay relative to BSO alone
- recorded conditions: recombinant enzyme
Exercise: for every item that follows, state its recorded FC.

Sample answers from the record:
| compound | FC |
| --- | --- |
| O=C(COc1ccc(Cl)cc1)N1CCN(Cc2ccc3c(c2)OCO3)CC1 [FIPEXIDE] | 0.4 |
| CC(C)NNC(=O)c1ccncc1 | 1 |
| Nc1c(CC(=O)O)cccc1C(=O)c1ccc(Br)cc1 | 1 |
| Cc1cn([C@H]2C[C@H](N=[N+]=[N-])[C@@H](CO)O2)c(=O)[nH]c1=O | 1 |

From here, focus on the item given below.
q: // lookup FC | system=Cytochrome P450 2C9 (Homo sapiens, UniProt P11712) | key= Nc1nc(NC2CC2)c2ncn([C@H]3C=C[C@@H](CO)C3)c2n1
a: 1
